# Test system: SK-OV-3
# experiment-description: Growth inhibition of human SKOV3 cells after 48 hrs by SRB assay
# Assay type: functional
# setup-conditions: SK-OV-3, 48 h
Each record's GI50 is compared with lower bin (below 80 nM), middle bin (80 nM to below 700 nM), upper bin (700 nM or more) to give its class.

Challenge: Band of COc1ccc2c(c1)CC=C2c1cc(OC)c(OC)c(OC)c1 ?
Response given: upper bin

Challenge: Which category fits this record: COc1cc(/C2=C/CCCCc3c2ccc(OC)c3OP(=O)([O-])[O-])cc(OC)c1OC.[Na+].[Na+]
Response given: lower bin

Challenge: Which category fits this record: COc1cc(C2=CCc3c2ccc(OC)c3OC)cc(OC)c1OC
Response given: upper bin

Challenge: Band for the recorded GI50 of COc1cc(/C2=C/CCCCc3c2ccc(OC)c3OC)cc(OC)c1OC ?
Response given: middle bin

Challenge: Field: class (GI50) — entry: COc1cc(C2=CCc3c2ccc(OC)c3OP(=O)(O)O)cc(OC)c1OC
Response given: middle bin

Challenge: Class label required: COc1ccc(/C=C\c2cc(OC)c(OC)c(OC)c2)cc1OP(=O)(O)O
Response given: lower bin

Challenge: Band assignment needed for COc1ccc2c(c1)CCCC/C=C\2c1cc(OC)c(OC)c(OC)c1 please.
Response given: middle bin

Values were extracted from ChEMBL document CHEMBL4190184.
